We begin with a simple list: items and their reported melting point.

1) CCOc1cccc(/C=N/c2ccccc2NC(=O)Nc2ccc(C)cc2)c1O [Compound 3i]    210 to 212 °C
2) CCOc1cccc(/C=N/c2ccccc2NC(=O)Nc2cccc(Cl)c2)c1O [Compound 3a]    218 to 220 °C
3) COc1cccc(/C=N/c2ccccc2NC(=O)Nc2ccc(C(C)=O)cc2)c1O [Compound 3v]    200 to 212 °C
4) COc1cccc(/C=N/c2ccccc2NC(=O)Nc2cccc(Cl)c2)c1O [Compound 3l]    208 to 210 °C

Here's the next entry for you.
Task item: For the compound shown here, COc1cccc(/C=N/c2ccccc2NC(=O)Nc2ccc(Cl)cc2)c1O [Compound 3q] , give the reported melting point.
Reply: 218 to 220 °C

* * *

Reported melting point values are given for each entry in this list.

1) COc1cccc(/C=N/c2ccccc2NC(=O)Nc2cccc(F)c2)c1O [Compound 3n]    200 to 201 °C
2) CCOc1cccc(/C=N/c2ccccc2NC(=O)Nc2ccccc2C)c1O [Compound 3g]    216 to 218 °C
3) COc1cccc(/C=N/c2ccccc2NC(=O)Nc2cccc(C)c2)c1O [Compound 3s]    201 to 203 °C
4) CCOc1cccc(/C=N/c2ccccc2NC(=O)Nc2ccc(OC)cc2)c1O [Compound 3e]    204 to 206 °C
5) CCOc1cccc(/C=N/c2ccccc2NC(=O)Nc2ccc3ccccc3c2)c1O [Compound 3d]    228 to 230 °C
6) COc1cccc(/C=N/c2ccccc2NC(=O)Nc2ccccc2)c1O [Compound 3u]    188 to 190 °C
7) COc1cccc(/C=N/c2ccccc2NC(=O)Nc2ccc3ccccc3c2)c1O [Compound 3o]    214 to 216 °C
8) CCOc1cccc(/C=N/c2ccccc2NC(=O)Nc2cccc(C)c2)c1O [Compound 3h]    203 to 205 °C
9) COc1cc(/C=N/c2ccccc2NC(=O)Nc2ccc(Cl)cc2)ccc1O [Compound 3w]    219 to 221 °C
10) COc1cc(/C=N/c2ccccc2NC(=O)Nc2ccccc2C)ccc1O [Compound 3x]    200 to 202 °C

Task item: So what does the record say about melting point for CCOc1cccc(/C=N/c2ccccc2NC(=O)Nc2ccc(Cl)cc2)c1O [Compound 3f] ?
Reply: 218 to 220 °C

Task item: Would you kindly share the measured melting point for CCOc1cccc(/C=N/c2ccccc2NC(=O)Nc2ccc(F)cc2)c1O [Compound 3b] ?
Reply: 217 to 219 °C
